FYI, the data here is from PubChem BioAssay AID686979.

Assay: qHTS for Inhibitors of human tyrosyl-DNA phosphodiesterase 1 (TDP1): qHTS in cells in presence of CPT; further: nearly all actives have a fitted effect of over 55% in size
Conditions: chicken DT40 Tdp1-/-;hTDP1 cells + 20 nM CPT, ATP luminescence, 48 h; series mostly up to 46.2 µM
Among all 420,000 compounds or so, about 50,000 (12%) were called active. Another 26% or so got no clear call; they are omitted. The call rests on the fitted dose curve; in most records, active means well fitted inhibition curve with a large enough effect; inconclusive means small, poorly fitted or top-dose-only effect; inactive means flat fitted curve, though single readings scatter. For the sample, actives were picked, then their nearest neighbours and some compounds at random.
Thanks in advance; please answer with one of these: active, inactive

Call for entry `COC(=O)CSc1snnc1-c1ccc(Cl)c(Cl)c1` : inactive

In this assay, the call recorded for `Cc1ccc(Cn2c(C)c3cnn(CC(=O)NCCN4CCOCC4)c(=O)c3c2C)cc1` was what? inactive

Field: outcome | Entry: CC(=O)Nc1ccc(S(=O)(=O)N2CCCC2C(=O)O)cc1 (centres undefined) inactive

Status in this test for `O=C(Cc1cccc2ccccc12)NCCC1=CCCCC1` ? inactive

// return assay outcome for NC(=O)C1CCCN(CC(=O)N2CCN(c3ccccc3)CC2)C1 (centres undefined) inactive

Short answer needed: outcome of this test for `O=C(Cn1ncc2c3ccccc3n(Cc3ccccc3)c2c1=O)NCc1ccccn1` ? inactive

I'd appreciate the recorded outcome for `COc1ccc(NC(=O)c2cnc(NS(=O)(=O)c3ccccc3)nc2)cc1` from this test. inactive

Call for entry `COc1cc(NS(=O)(=O)c2ccc(NC(C)=O)cc2)cc(OC)c1` : active

What call does the record list for `CC(=O)Nc1ccc(NS(=O)(=O)c2ccc3c(c2)NC(=O)CC(=O)N3)cc1` ? inactive

Field: outcome | Entry: `Nc1nnc(SCC(=O)NCC(=O)Nc2ccc(F)c(F)c2F)s1` inactive

# outcome recorded in this test, key = CC(C)(C)c1ccc(CCC2OCC(CN3CCOCC3)O2)cc1 (centres undefined) active

Tell me the recorded outcome of this test for `COc1ccc(/C=N/NS(=O)(=O)c2ccc(NC(C)=O)cc2)cc1` . inactive

Please share the test call associated with `COc1ccc(NS(=O)(=O)c2ccc(NC(=O)c3ccc(N(C)S(C)(=O)=O)cc3)cc2)cc1` . active

Per the records of this test, what outcome belongs to CC1CC(C)CN(CCCNC(=O)Cn2ncc3c([nH]c4ccccc43)c2=O)C1 (centres undefined) ? inactive

// param item: CCCOCC(O)CC(CC)C(=O)NNC(=S)Nc1ccccc1 (centres undefined) ; yields the recorded call inactive

Name the outcome recorded for CCCCOc1ccc(C(C)(O)CCN2CCOCC2)cc1 (centres undefined) in the assay. inactive

Give the logged outcome of this assay for the following molecule: `CC(=O)Nc1ccc(S(=O)(=O)Nc2cccc(NC(=O)C(C)(C)C)c2)cc1` inactive

Recorded test outcome, item `COc1cccc(CC(=O)Nc2ccc(-c3csc(C)n3)cc2)c1` inactive

Which outcome did this test record for the molecule `COc1cc(NC(=O)NCC2CCN(Cc3ccc(C)cc3)CC2)cc(OC)c1OC` ? inactive

For `COc1ccc(-c2csc(Nc3ccc(O)cc3)n2)cc1` , what call appears in the results of this test? active

Tell me the recorded outcome of this test for `COc1ccc(OC)c(-c2csc(-c3cccs3)n2)c1` . inactive

What classification did `Cc1ccc(CNC(=O)CCc2c(C)nc3c(c(C)nn3-c3ccccc3)c2C)cc1` end up with in this test? inactive

For `O=C(COc1ccc(Cl)cc1)NC(=S)Nc1ccccc1N1CCOCC1` , what call appears in the results of this test? inactive

Please share the test call associated with `COc1ccc(-n2c(CNC(=O)c3cc(C(F)(F)F)ccc3Cl)nnc2SC)cc1` . inactive

For `O=C(CNCCC1=CCCCC1)Nc1ccccc1N1CCCCCC1` , what call appears in the results of this test? active

Could you please tell me the result logged for `CSc1ccc(CNCCN2CCOCC2)cc1` in this assay? inactive

// param item: `CCCn1c2ccccc2c2cnn(CC(=O)NCCCOC(C)C)c(=O)c21` ; yields the recorded call active

Can you look up the reported call for Cc1ccc(N2C(=O)CC(NCc3ccc4c(c3)OCO4)C2=O)cc1Cl (centres undefined) for me? inactive

GET /call?item= COc1ccccc1/C=C/C(=O)NC1CC2CCC1C2 (centres undefined) returns the recorded outcome of this test. inactive

Query: recorded result category for `Cc1ccc(Cn2c(C)c3cnn(CC(=O)NCc4ccccc4)c(=O)c3c2C)cc1` in this test active

Could you check what this test reported for CSc1cccc(NC(=O)C2CCCN2S(=O)(=O)c2ccc3c(c2)CCC(=O)N3)c1 (centres undefined) ? inactive

Returns: the outcome recorded for `COc1ccc(S(=O)(=O)N2CCN(CC(=O)NCC3(N4CCOCC4)CCCCC3)CC2)cc1` in this assay. inactive

Hi, sorry to bother you, what did the test record for `COC(=O)COc1ccc(S(=O)(=O)Nc2ccc(NC(C)=O)cc2)cc1` ? inactive

Given `COc1ccc(-c2csc(Cc3nc(O)cs3)n2)cc1` , state the outcome it received in this test. active

Please indicate how the test categorized `Cn1cnc([N+](=O)[O-])c1Nc1ccccc1O` . inactive

What did this assay record as the result for `COc1ccc(CCN(C(=O)COc2ccccc2)c2nc(-c3ccccc3)cs2)cc1OC` ? inactive

Just curious, what result did `O=C(OCC(=O)N1CCCC1)c1ccc(Cl)nc1` get here? inactive

Recorded test call requested for CC1CCCCN1CCCNC(=O)Cn1ncc2c([nH]c3ccccc32)c1=O (centres undefined) inactive

Which outcome was entered for the molecule Cc1ccn(CC(=O)NC2CCCN(Cc3ccccc3F)C2)n1 (centres undefined) in this test? inactive

// outcome(item) with item = `COc1cc(OC)cc(C(=O)Nc2ccc(S(=O)(=O)Nc3cc(C)on3)cc2)c1` inactive

Identify the outcome logged in this assay for the molecule shown: `CC(=O)Nc1ccc(S(=O)(=O)N(C)c2ccc(OCC(=O)OCC(=O)N3CCCCC3)cc2)cc1` inactive

Write down the call the test reported for this molecule. Item: `COc1ccc(OC)c(-c2csc(NC(=O)COC(=O)C3CC3)n2)c1` inactive

GET /call?item= `COc1ccc(C(=O)Nc2ccc(S(=O)(=O)Nc3onc(C)c3C)cc2)cc1OC` returns the recorded outcome of this test. inactive

Give the logged outcome of this assay for the following molecule: `COc1ccc(NS(=O)(=O)c2ccc(NC(C)=O)cc2)cc1OC` active
